target: human glucagon receptor (human) (UniProt P47871); assay: cell-based or functional assay
Sequence (P47871 26-477): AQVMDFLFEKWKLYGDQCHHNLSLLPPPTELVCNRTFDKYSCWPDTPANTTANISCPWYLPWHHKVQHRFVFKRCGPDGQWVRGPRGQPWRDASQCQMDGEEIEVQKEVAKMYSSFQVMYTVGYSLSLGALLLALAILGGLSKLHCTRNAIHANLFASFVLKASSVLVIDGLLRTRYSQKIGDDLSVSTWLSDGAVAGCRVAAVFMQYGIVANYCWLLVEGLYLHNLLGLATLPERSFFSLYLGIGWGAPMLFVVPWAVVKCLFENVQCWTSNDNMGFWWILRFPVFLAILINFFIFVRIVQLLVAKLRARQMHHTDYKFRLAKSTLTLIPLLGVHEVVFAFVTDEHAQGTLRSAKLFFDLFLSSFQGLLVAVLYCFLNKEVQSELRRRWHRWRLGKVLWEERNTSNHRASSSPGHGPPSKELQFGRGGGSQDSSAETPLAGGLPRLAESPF
Kindly supply the reported cAMP Rel EC50, nM (in the presence of 1% HSA) values for the records listed here.
The figure you give is taken to be in nM; do not add the unit.

I have this binder here, YXQGTFTSDFSXXLDKKAQXAFIEWLLEGGHSSGEPPPSGE (synthetic construct; SITE 2: note = 2-Aminoisobutyric Acid; SITE 12: note = L-ornithine; SITE 13: note = alpha-methyl-leucine; SITE 17: note = Lysine is chemically modified through conjugation of the epsilon-amino group of the Lysine side chain with (2-[2-(2-Amino-ethoxy)-ethoxy]-acetyl)-(gamma-Glu)) [Example 124] , and I need its recorded cAMP Rel EC50, nM (in the presence of 1% HSA).
567

I have this binder here, YXQGTFTSDFSXXLDKKAQXAFIEYLLEXGPSSGAPPPGEG (synthetic construct; SITE 2: note = 2-Aminoisobutyric Acid; SITE 12: note = L-ornithine; SITE 13: note = alpha-methyl-leucine; SITE 17: note = Lysine is chemically modified through conjugation of the epsilon-amino group of the Lysine side chain with (2-[2-(2-Amino-ethoxy)-ethoxy]-acetyl)2-(gamma-Glu)) [Example 70] , and I need its recorded cAMP Rel EC50, nM (in the presence of 1% HSA).
717

I have this binder here, YXQGTFTSDFSXXLDKKAQXAFIEYLLAGGPSSGAPPPSGT (synthetic construct; SITE 2: note = 2-Aminoisobutyric Acid; SITE 12: note = L-ornithine; SITE 13: note = alpha-methyl-leucine; SITE 17: note = Lysine is chemically modified through conjugation of the epsilon-amino group of the Lysine side chain with (2-[2-(2-Amino-ethoxy)-ethoxy]-acetyl)-(gamma-Glu)) [Example 87] , and I need its recorded cAMP Rel EC50, nM (in the presence of 1% HSA).
1110

I have this binder here, YXQGTFTSDFSKXLDKKAQXAFIEYLLEGGPSSGEPPPGEGX (synthetic construct; SITE 2: note = 2-Aminoisobutyric Acid; SITE 13: note = alpha-methyl-leucine; SITE 17: note = Lysine is chemically modified through conjugation of the epsilon-amino group of the Lysine side chain with (2-[2-(2-Amino-ethoxy)-ethoxy]-acetyl)-(gamma-Glu)-CO-(CH2) 18-CO2H; SITE 20: n) [Example 54] , and I need its recorded cAMP Rel EC50, nM (in the presence of 1% HSA).
1940

I have this binder here, YXQGTFTSDFSXXLDKKAQXAFIEWLLEGGXSSGAPPPSGE (synthetic construct; SITE 2: note = 2-Aminoisobutyric Acid; SITE 12: note = L-ornithine; SITE 13: note = alpha-methyl-leucine; SITE 17: note = Lysine is chemically modified through conjugation of the epsilon-amino group of the Lysine side chain with (2-[2-(2-Amino-ethoxy)-ethoxy]-acetyl)-(gamma-Glu)) [Example 104] , and I need its recorded cAMP Rel EC50, nM (in the presence of 1% HSA).
1260

I have this binder here, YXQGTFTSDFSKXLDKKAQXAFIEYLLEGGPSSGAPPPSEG (synthetic construct; SITE 2: note = 2-Aminoisobutyric Acid; SITE 13: note = alpha-methyl-leucine; SITE 17: note = Lysine is chemically modified through conjugation of the epsilon-amino group of the Lysine side chain with (gamma-Glu)2-CO-(CH2)16-CO2H; SITE 20: note = 2-Aminoisobutyric Acid; SITE 41:) [Example 58] , and I need its recorded cAMP Rel EC50, nM (in the presence of 1% HSA).
115
